Numbers sourced from patent US20210253718A1.

# subject of test: FZD7 cysteine-rich domain (CRD), MYC-tagged and GPI-anchored on CHO cells (human, UniProt O75084 45-169)
# assay: flow cytometry, CHO-CRD cells;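 also: flow cytometry of Fab binding to CHO cells overexpressing a Frizzled CRD, with binding defined as median fluorescence over twice that of CHO cells lacking any Frizzled CRD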
readout: median fluorescence

If you can, please state the reported median fluorescence value of Fab-2924 (Fab, V domains shown, Fab; also called Fv-2924) VH: EVQLVESGGGLVQPGGSLRLSCAASGFNISYSYIHWVRQAPGKGLEWVASIYSYYSSTSYADSVKGRFTISADTSKNTAYLQMNSLRAEDTAVYYCARGALDYWGQGTLVTVSS VL: DIQMTQSPSSLSASVGDRVTITCRASQSVSSAVAWYQQKPGKAPKLLIYSASSLYSGVPSRFSGSRSGTDFTLTISSLQPEDFATYYCQQWYSGHSLITFGQGTKVEIK . 6.49

If you can, please state the reported median fluorescence value of Fab-2902 (Fab, V domains shown, Fab; also called Fv-2902) VH: EVQLVESGGGLVQPGGSLRLSCAASGFNISYYYIHWVRQAPGKGLEWVASISSSSSSTSYADSVKGRFTISADTSKNTAYLQMNSLRAEDTAVYYCARGALDYWGQGTLVTVSS VL: DIQMTQSPSSLSASVGDRVTITCRASQSVSSAVAWYQQKPGKAPKLLIYSASSLYSGVPSRFSGSRSGTDFTLTISSLQPEDFATYYCQQWYAFGALITFGQGTKVEIK . 16

If you can, please state the reported median fluorescence value of Fab-2934 (Fab, V domains shown, Fab; also called Fv-2934) VH: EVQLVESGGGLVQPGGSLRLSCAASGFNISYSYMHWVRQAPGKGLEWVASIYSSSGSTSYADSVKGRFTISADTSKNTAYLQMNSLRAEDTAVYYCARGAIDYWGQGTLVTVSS VL: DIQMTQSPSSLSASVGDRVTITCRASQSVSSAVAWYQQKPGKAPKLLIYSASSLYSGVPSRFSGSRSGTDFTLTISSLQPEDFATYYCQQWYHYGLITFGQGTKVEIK . 3.52

If you can, please state the reported median fluorescence value of Fab-2911 (Fab, V domains shown, Fab; also called Fv-2911) VH: EVQLVESGGGLVQPGGSLRLSCAASGFNIYYSSMHWVRQAPGKGLEWVAYIYPYSGYTSYADSVKGRFTISADTSKNTAYLQMNSLRAEDTAVYYCARYFWWYGFDYWGQGTLVTVSS VL: DIQMTQSPSSLSASVGDRVTITCRASQSVSSAVAWYQQKPGKAPKLLIYSASSLYSGVPSRFSGSRSGTDFTLTISSLQPEDFATYYCQQGPWYPFTFGQGTKVEIK . 43.3
